measurement_kind: melting point

Below, 5 molecules whose answers are already recorded.
# molecule, melting point
data = [
    ("O=C(O)c1ccc(OCc2ccccc2)c(Cl)c1", "211 to 213 °C"),
    ("CC(C)(C)OC(=O)c1n[nH]c2nc(N3CCNCC3)ccc12", "190 to 191 °C"),
    ("CC(=O)C(=NNc1ccc([N+](=O)[O-])cc1)Sc1ccc(Cl)cc1", "181 to 183 °C"),
    ("CC(C)(C)COc1ccc([N+](=O)[O-])cc1C#N", "90 to 91 °C"),
    ("Oc1cc(O)c2cc(-c3ccc(F)cc3)oc2c1", "189 to 190 °C"),
]

Which melting point value is on record for CCN1CCCC1CNC(=O)c1cc(NS(C)(=O)=O)ccc1OC (stereo not given) ?
171 to 172 °C

And then CC(CCN1c2cccc3cccc(c23)S1(=O)=O)N1CCN(c2ccc(F)cc2)CC1 (stereo not given) , what is it?
122 °C

And then C#CCOc1noc2ccc(N3C(=O)C4=C(CCCC4)C3=O)cc12 , what is it?
147 to 148 °C

And then COC(=O)c1cc2ccc(OC)cc2c2c1C=CC(c1ccc(OC)cc1)(c1ccc(OC)cc1)O2 , what is it?
162 to 164 °C

And then CC(C)(C)OC(=O)NCC(=O)Oc1cccc(-c2cn3c(n2)sc2ccccc23)c1 , what is it?
150 °C

And then CO/N=C(/C(N)=O)c1ccccc1COc1cc(C)ccc1C , what is it?
122 °C

And then COc1ccccc1NC(=O)Nc1nc(Nc2ccc(CC(=O)O)cc2)nc(Nc2ccccc2-c2ccccc2)n1 , what is it?
> 300 °C

And then COc1cc(N2CCNCC2)cc(OC)c1OC , what is it?
73 to 77 °C

And then COCC(=O)c1c(Cl)ccc(F)c1Cl , what is it?
36.7 to 39.4 °C

And then CCc1ccc2c(c1)cc(C(=O)Nc1nc(-c3c(OC)cc(C)cc3OC)n(CCC3CCCCC3)n1)n2CC(=O)OC , what is it?
191 °C

And then COC(=O)c1nc(NC(=O)Nc2ccccc2)ccc1Oc1nc(OC)cc(OC)n1 , what is it?
236 to 237 °C

And then COc1ccccc1-c1cccc2c1OC(COS(=O)(=O)c1ccc(C)cc1)C2 (stereo not given) , what is it?
100 to 103 °C

And then Cc1cc2c(cc1NC(=O)c1cccc(I)c1C(=O)NC(C)C)OC(F)(F)C2(O)C(F)(F)F (stereo not given) , what is it?
144 to 146 °C

And then O=C(O)CCCNC(=O)C(CS)Cc1ccccc1 (stereo not given) , what is it?
94.5 to 101 °C

And then C1=Cc2ccccc2NN=C1 , what is it?
183 to 184 °C
